Data origin, for the record: ChEMBL document CHEMBL1130883

System: Aspergillus fumigatus
Assay: Compound was tested in vitro for antifungal activity against Aspergillus fumigatus (CF1004)
Assay type: functional
Label Fulfilled when IC80 is strictly below 60 µg/mL; otherwise label Not fulfilled.

is_below(IC80, 60 µg/mL) for CC1(C)CC[C@@H](COc2ccc(OC(F)(F)F)cc2)[C@H](Cn2cncn2)/C1=N\O ?
Fulfilled

API: query returns whether the molecule falls strictly under 60 µg/mL in IC80. Query: CC1(C)CC[C@@H](COc2ccc(OC(F)(F)F)cc2)[C@H](Cn2cncn2)C1OCCO (stereo partly specified)
Not fulfilled

Is the reported IC80 for CC(O)c1ccc(CC[C@@H]2CCC(C)(C)/C(=N/O)[C@H]2Cn2cncn2)cc1 (stereo partly specified) strictly below 60 µg/mL?
Fulfilled

A record lists CCc1ccc(CC[C@@H]2CCC(C)(C)[C@H](OC)[C@H]2Cn2cncn2)cc1 . Is its IC80 below 60 µg/mL?
Not fulfilled

Identify whether the molecule CCc1ccc(CC[C@@H]2CCC(C)(C)/C(=N/OC)[C@H]2Cn2cncn2)cc1 records IC80 below 60 µg/mL.
Fulfilled

Given the entry CCc1ccc(CC[C@@H]2CCC(C)(C)/C(=N/O)[C@H]2Cn2cncn2)cc1 , would its reported IC80 be below 60 µg/mL?
Fulfilled

Decide: IC80 of OC(Cn1cncn1)(Cn1cncn1)c1ccc(F)cc1F [FLUCONAZOLE] strictly below 60 µg/mL?
Not fulfilled

Lab log: compare recorded IC80 with 60 µg/mL; is it strictly lower for CO/N=C1\[C@@H](Cn2cncn2)[C@H](COc2ccc(OC(F)(F)F)cc2)CCC1(C)C ?
Fulfilled

Find out if reported IC80 for CCc1ccc(CC[C@@H]2CCC(C)(C)C(OCCO)[C@H]2Cn2cncn2)cc1 (stereo partly specified) is less than 60 µg/mL
Not fulfilled

Please state whether IC80 is below 60 µg/mL for COC1[C@@H](Cn2cncn2)[C@H](COc2ccc(OC(F)(F)F)cc2)CCC1(C)C (stereo partly specified)
Fulfilled
